Values were extracted from ChEMBL document CHEMBL1155468.

Tested on: Mus musculus
Method: Teratogenic effect in SWV mouse assessed as live fetuses at 294 mg/kg, ip administered on morning of day 8 of gestation
Type: toxicity, organism-based
Set-up: dose 294 mg/kg, route intraperitoneal
Stated Conditions: in vivo
Measurement Type: Activity (%)
Numbers only, in %.

INSERT INTO assay_data (compound, measurement_type, scale_unit, assay_result) VALUES
  ('CC(C)(C)CC(=O)Nc1ccc(S(N)(=O)=O)cc1', 'Activity', '%', 91.6),
  ('CCC(CC)C(=O)Nc1ccc(S(N)(=O)=O)cc1', 'Activity', '%', 84.2),
  ('CCCC(C)C(=O)Nc1ccc(S(N)(=O)=O)cc1 (centres undefined)', 'Activity', '%', 65.2);

Proceed to the following item.
Please look up its Activity: CCC(C)CC(=O)Nc1ccc(S(N)(=O)=O)cc1 (centres undefined)
67.5
